Attribute: Kd
Target: HLA-A*02:16
Test: IEDB peptide-MHC binding, purified MHC/direct/fluorescence; filed as Kd, often an IC50 or EC50 that approximates it; bounds were set here for any values at or beyond the usual limits of such assays
Details: source organism: Encephalitozoon cuniculi GB-M1

HPYVFCALL; ≥ 20 µM
SPLPITLKY; ≥ 20 µM

I have this sequence here, EAYCALLCK , and I need its recorded Kd.
≥ 20 µM

----------
Molecular target: HLA-B*08:02
Experiment: IEDB peptide-MHC binding, purified MHC/direct/fluorescence; filed as Kd, often an IC50 or EC50 that approximates it; bounds were set here for any values at or beyond the usual limits of such assays
Conditions: source organism: Influenza A virus (A/Taiwan/2/2006(H1N1))
Quantity: Kd

Endpoint output: Kd of CFMYSDFHF . Value?
≥ 20 µM

----------
Target: HLA-A*68:01
Test: IEDB peptide-MHC binding, purified MHC/competitive/radioactivity; filed as Kd, often an IC50 or EC50 that approximates it; bounds were set here for any values at or beyond the usual limits of such assays
Details: source organism: Hepatitis C virus (isolate 1)
pKd: −log10 of the molar value.
Quantity: pKd

# value lookup — system HLA-A*68:01, readout pKd, item HSKKKCDEL
≤ 4.11

----------
Target: HLA-B*18:01
Assay: IEDB peptide-MHC binding, purified MHC/direct/fluorescence; filed as Kd, often an IC50 or EC50 that approximates it; bounds were set here for any values at or beyond the usual limits of such assays
Conditions: source organism: Burkholderia mallei
Quantity: Kd

For the sequence IQRRGAQFQ , what Kd is on record?
≥ 20 µM

----------
Target: HLA-B*08:01
Assay: IEDB peptide-MHC binding, purified MHC/direct/fluorescence; filed as Kd, often an IC50 or EC50 that approximates it; bounds were set here for any values at or beyond the usual limits of such assays
Settings: source organism: Influenza A virus (A/egret/Hong Kong/757.3/2002(H5N1))
Quantity: Kd

Field request: Kd | item: EEFTMVGRR
≥ 20 µM

----------
Molecular target: HLA-A*02:16
Assay: IEDB peptide-MHC binding, purified MHC/direct/fluorescence; filed as Kd, often an IC50 or EC50 that approximates it; bounds were set here for any values at or beyond the usual limits of such assays
Details: source organism: Reston ebolavirus
pKd: −log10 of the molar value.
Quantity: pKd

Form field: reported pKd of RTYSLLNRK
≤ 4.70

----------
Target: HLA-B*44:02
Assay: IEDB peptide-MHC binding, purified MHC/competitive/radioactivity; filed as Kd, often an IC50 or EC50 that approximates it; bounds were set here for any values at or beyond the usual limits of such assays
Conditions: source organism: Lymphocytic choriomeningitis virus (strain WE)
Quantity: Kd

May I ask what Kd has been recorded for LDVLCPSSL ?
≥ 22.2 µM

----------
Target: HLA-B*39:01
Assay: IEDB peptide-MHC binding, purified MHC/direct/fluorescence; filed as Kd, often an IC50 or EC50 that approximates it; bounds were set here for any values at or beyond the usual limits of such assays
Conditions: source organism: Entamoeba histolytica HM-1:IMSS
pKd: −log10 of the molar value.
Quantity: pKd

Could you tell me which pKd is on file for RQRHYFDSA ?
≤ 4.70

----------
Target: HLA-B*51:01
Experiment: IEDB peptide-MHC binding, purified MHC/competitive/fluorescence; filed as Kd, often an IC50 or EC50 that approximates it; bounds were set here for any values at or beyond the usual limits of such assays
Details: source organism: Zaire ebolavirus
pKd: −log10 of the molar value.
Quantity: pKd

Take a look at these entries with their results.
EWAENCYNL; ≤ 4.70
GLIQYPTAW; ≤ 4.70
DEMVCKWLL; ≤ 4.70

Give pKd (HLA-B*51:01) of the following sequence: AKATGRYNL
≤ 4.70

Provide the documented pKd with HLA-B*51:01 as the system for LSDAARLFL
≤ 4.70
